Molecular target: T1, human high affinity trimeric IL-2 receptor (CD25/CD122/CD132) (human, UniProt P01589 22-272; P14784 27-551; P31785 23-369)
T1 sequence 1: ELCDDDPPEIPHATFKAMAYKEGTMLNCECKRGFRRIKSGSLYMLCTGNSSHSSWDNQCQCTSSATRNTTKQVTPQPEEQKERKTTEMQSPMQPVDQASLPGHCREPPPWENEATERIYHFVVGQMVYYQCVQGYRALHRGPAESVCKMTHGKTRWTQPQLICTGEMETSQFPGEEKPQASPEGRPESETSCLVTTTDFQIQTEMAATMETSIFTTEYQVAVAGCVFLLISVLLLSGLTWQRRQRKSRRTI
T1 sequence 2: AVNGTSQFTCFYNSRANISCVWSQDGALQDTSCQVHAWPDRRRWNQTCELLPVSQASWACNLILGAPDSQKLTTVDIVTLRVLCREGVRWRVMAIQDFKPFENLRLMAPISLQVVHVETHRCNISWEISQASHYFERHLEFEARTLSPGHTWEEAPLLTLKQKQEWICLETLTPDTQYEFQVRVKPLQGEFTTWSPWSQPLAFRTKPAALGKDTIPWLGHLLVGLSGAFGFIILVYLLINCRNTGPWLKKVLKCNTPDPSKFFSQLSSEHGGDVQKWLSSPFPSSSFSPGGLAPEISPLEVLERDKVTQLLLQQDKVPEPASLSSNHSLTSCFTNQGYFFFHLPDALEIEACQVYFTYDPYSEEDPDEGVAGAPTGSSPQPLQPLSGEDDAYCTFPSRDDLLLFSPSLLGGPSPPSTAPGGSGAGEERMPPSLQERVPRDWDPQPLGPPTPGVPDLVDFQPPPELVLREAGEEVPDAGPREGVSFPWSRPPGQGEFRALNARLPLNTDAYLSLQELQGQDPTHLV
T1 sequence 3: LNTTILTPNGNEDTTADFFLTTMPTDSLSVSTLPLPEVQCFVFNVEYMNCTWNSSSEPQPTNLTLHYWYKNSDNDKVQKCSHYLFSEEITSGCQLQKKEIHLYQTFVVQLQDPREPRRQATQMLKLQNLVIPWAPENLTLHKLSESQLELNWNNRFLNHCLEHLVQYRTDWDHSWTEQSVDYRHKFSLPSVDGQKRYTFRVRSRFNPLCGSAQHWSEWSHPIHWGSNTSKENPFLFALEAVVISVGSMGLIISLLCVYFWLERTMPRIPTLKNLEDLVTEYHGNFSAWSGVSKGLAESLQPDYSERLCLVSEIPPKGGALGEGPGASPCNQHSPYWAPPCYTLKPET
Assay: cell-based or functional assay
parameter: pSTAT5 ratio YT CD25/YT, dilution factor 32, lower table

1: RDH (ligand) cytokine: APTSSSTKKTQLQLEHLRLDLDMILNGINNYKNPKLTRMLTFKFYMPKKATELKHLQCLEEELKPLEEVLNLAQSKNFHLRPRDLISNINVIVLELKGSETTFMCEYADETATIVEFLNRWITFCHSIISTLT
2: RTH (ligand) cytokine: APTSSSTKKTQLQLEHLRLDLTMILNGINNYKNPKLTRMLTFKFYMPKKATELKHLQCLEEELKPLEEVLNLAQSKNFHLRPRDLISNINVIVLELKGSETTFMCEYADETATIVEFLNRWITFCHSIISTLT
Lab note: check whether 1 or 2 shows the higher recorded pSTAT5 ratio YT CD25/YT, dilution factor 32, lower table. Refer to your chosen item by its label in the answer. 2
(2: 5.4, 1: 2.9)

I: RMH (ligand) cytokine: APTSSSTKKTQLQLEHLRLDLMMILNGINNYKNPKLTRMLTFKFYMPKKATELKHLQCLEEELKPLEEVLNLAQSKNFHLRPRDLISNINVIVLELKGSETTFMCEYADETATIVEFLNRWITFCHSIISTLT
II: RVH (ligand) cytokine: APTSSSTKKTQLQLEHLRLDLVMILNGINNYKNPKLTRMLTFKFYMPKKATELKHLQCLEEELKPLEEVLNLAQSKNFHLRPRDLISNINVIVLELKGSETTFMCEYADETATIVEFLNRWITFCHSIISTLT
// select label with min value of measured pSTAT5 ratio YT CD25/YT, dilution factor 32, lower table from [ I , II ] Answer with the label corresponding to your selection. I
